tested on: Lolium multiflorum; assay: Phytotoxicity against Lolium multiflorum (Italian ryegrass) assessed as inhibition of seed germination after 48 hr; format: functional
Activity calls are given as the source filed them. The rule behind the calls is not given here.
Measured Quantity: GI50

> print(dat)
                                   compound     target.of.assay    result
1                        CC(=O)c1ccc(Br)cc1  Lolium multiflorum  inactive
2  CC(=O)c1ccc2c(c1)C[C@H](C(C)C)O2 [10,11-DIHYDRO TREMETONE]  Lolium multiflorum   31.5 µM
3  CC(=O)c1ccc(O)cc1 [4-HYDROXYACETOPHENONE]  Lolium multiflorum   14.4 µM
4  CC(=O)c1ccc2c(c1O)C[C@H](C1(C)CO1)O2 (some centres not stated)  Lolium multiflorum   10.4 µM
5  CC(=O)c1ccc2c(c1)CC(C1(C)CO1)O2 (configuration not stated)  Lolium multiflorum   65.6 µM
6                        COc1ccc(C(C)=O)cc1  Lolium multiflorum   18.1 µM
7  C=C(C)[C@H]1Cc2c(ccc(C(C)=O)c2OC(C)=O)O1  Lolium multiflorum   79.9 µM
8  CC(=O)Oc1ccc(C(C)=O)cc1 [4-(ACETATE)ACETOPHENONE]  Lolium multiflorum   75.3 µM

Q: What measured GI50 goes with CC(=O)c1ccc(O[C@@H]2O[C@H](CO)[C@@H](O)[C@H](O)[C@H]2O)cc1 ?
Ans: inactive

Q: Would you mind doing C=C(C)[C@H]1Cc2cc(C(C)=O)ccc2O1 as well?
Ans: 37.5 µM

Q: Would you mind doing C=C(C)[C@H]1Cc2c(ccc(C(C)=O)c2O)O1 [4-HYDROXY TREMETONE] as well?
Ans: 25.5 µM

Q: Would you mind doing CC(=O)c1ccccc1 as well?
Ans: 128 µM

----------
system: Lactuca sativa; test: Phytotoxicity against Lactuca sativa (lettuce) assessed as inhibition of seed respiration during germination after 72 hr; type: functional, organism-based; conditions: read-out: I50
Measured Quantity: IC50 (µM)
Please respond with the number in µM and leave the unit unwritten.

Q: What measured IC50 goes with C=C(C)[C@H]1Cc2c(ccc(C(C)=O)c2O)O1 [4-HYDROXY TREMETONE] ?
Ans: 27

Q: Would you mind doing CC(=O)c1ccc(O)cc1 [4-HYDROXYACETOPHENONE] as well?
Ans: 43

Q: Would you mind doing CC(=O)c1ccc2c(c1)CC(C1(C)CO1)O2 (stereo not given) as well?
Ans: 58

Q: Would you mind doing COc1ccc(C(C)=O)cc1 as well?
Ans: 55.9

Q: Would you mind doing CC(=O)c1ccc2c(c1O)C[C@H](C1(C)CO1)O2 (stereo not given in full) as well?
Ans: 11

----------
system: Physalis ixocarpa; assay: Phytotoxicity against Physalis ixocarpa assessed as inhibition of seed germination after 48 hr; format: functional
Calls of active or inactive are those of the source. The calls are words filed in the database; no cut-off is given here.
Measured Quantity: GI50

> print(dat)
                                   compound    result
1  C=C(C)[C@H]1Cc2c(ccc(C(C)=O)c2O)O1 [4-HYDROXY TREMETONE]   16.6 µM
2             CC(=O)c1ccccc1 [ACETOPHENONE]  inactive
3  COc1ccc(C(C)=O)cc1 [P-METHOXY-ACETOPHENONE]   23.5 µM
4                        CC(=O)c1ccc(Br)cc1  inactive
5  CC(=O)c1ccc2c(c1)CC(C1(C)CO1)O2 (configuration not stated) [10,11-EPOXY TREMETONE]   19.2 µM

Q: What is its GI50 for Physalis ixocarpa? Entry: CC(=O)c1ccc(O)cc1 [4-HYDROXYACETOPHENONE]
Ans: 15 µM

Q: Would you mind doing CC(=O)Oc1ccc(C(C)=O)cc1 [4-(ACETATE)ACETOPHENONE] as well?
Ans: inactive

Data provenance: ChEMBL document CHEMBL3046177
